# Assay: Inhibition of West Nile virus NS2B-NS3 protease using 2-Abz-Gly-Leu-Lys-Arg-Gly-Gly-[…]-Tyr-NH2 as substrate preincubated with protein for 15 mins followed by substrate addition measured for 15 mins by FRET assay
Square brackets hold non-standard residues; d marks the D form. Peptide text beside a SMILES is read from it. * marks the point of attachment. dPhg = N[C@@H](C(=O)O)c1ccccc1; Bz = O=C(c1ccccc1)*
Property name: IC50 (nM)
Your answer is read as nM, so omit the unit and give the number.

>  <Compound>
COc1cccc(COc2ccc([C@@H](NC(=O)[C@H](CCCCN)NC(=O)[C@H](CCCNC(=N)N)NC(=O)c3nccs3)C(N)=O)cc2)c1

>  <IC50, nM>
273

$$$$
>  <Compound>
N=C(N)NCCC[C@H](NC(=O)c1ccccc1)C(=O)N[C@@H](CCCCN)C(=O)N[C@@H](C(N)=O)c1ccccc1 (Bz-Arg-Lys-[dPhg]-NH2)

>  <IC50, nM>
3780

$$$$
>  <Compound>
N=C(N)NCCC[C@H](NC(=O)c1ccccc1)C(=O)N[C@@H](CCCCN)C(=O)N[C@@H](C(N)=O)c1ccc(OCC(=O)c2ccccc2)cc1

>  <IC50, nM>
508

$$$$
>  <Compound>
N=C(N)NCCC[C@H](NC(=O)c1ccc(-c2ccccc2)s1)C(=O)N[C@@H](CCCCN)C(=O)N[C@@H](C(N)=O)c1ccc(OCc2ccccc2)cc1

>  <IC50, nM>
360

$$$$
>  <Compound>
N=C(N)NCCC[C@H](NC(=O)c1ccccc1)C(=O)N[C@@H](CCCCN)C(=O)N[C@@H](C(N)=O)c1ccc(OCc2cccc(Cl)c2)cc1

>  <IC50, nM>
321

$$$$

For `N=C(N)NCCC[C@H](NC(=O)c1ccccc1)C(=O)N[C@@H](CCCCN)C(=O)N[C@@H](C(N)=O)c1ccc(OCc2ccccc2Cl)cc1` , what is its reported IC50?
406

Cool, now `N=C(N)NCCC[C@H](NC(=O)c1nccs1)C(=O)N[C@@H](CCCCN)C(=O)N[C@@H](C(N)=O)c1ccc(OCc2ccc(C(F)(F)F)cc2)cc1`
50

Cool, now `N=C(N)NCCC[C@H](NC(=O)c1cccs1)C(=O)N[C@@H](CCCCN)C(=O)N[C@@H](C(N)=O)c1ccc(OCC(=O)c2ccc(Br)cc2)cc1`
487

Cool, now `N=C(N)NCCC[C@H](NC(=O)c1ccccc1)C(=O)N[C@@H](CCCCN)C(=O)N[C@@H](C(N)=O)c1ccc(OCc2ccc(Cl)cc2)cc1`
486

Cool, now `N=C(N)NCCC[C@H](NC(=O)c1cc2ccccc2s1)C(=O)N[C@@H](CCCCN)C(=O)N[C@@H](C(N)=O)c1ccc(OCc2ccc(C(F)(F)F)cc2)cc1`
604

Cool, now `N=C(N)NCCC[C@H](NC(=O)/C=C/c1ccccc1)C(=O)N[C@@H](CCCCN)C(=O)N[C@@H](C(N)=O)c1ccc(OCc2ccccc2)cc1`
561

Cool, now `N=C(N)NCCC[C@H](NC(=O)c1ccccc1C(F)(F)F)C(=O)N[C@@H](CCCCN)C(=O)N[C@@H](C(N)=O)c1ccc(OCc2ccccc2)cc1`
434

Cool, now `N=C(N)NCCC[C@H](NC(=O)c1ccc(-c2cccs2)s1)C(=O)N[C@@H](CCCCN)C(=O)N[C@@H](C(N)=O)c1ccc(OCc2ccccc2)cc1`
430

Cool, now `N=C(N)NCCC[C@H](NC(=O)c1ccccc1)C(=O)N[C@@H](CCCCN)C(=O)N[C@@H](C(N)=O)c1ccc(OCc2ccc(Br)cc2)cc1`
308

Cool, now `N=C(N)NCCC[C@H](NC(=O)c1sccc1Cl)C(=O)N[C@@H](CCCCN)C(=O)N[C@@H](C(N)=O)c1ccc(OCc2ccc(Cl)cc2)cc1`
821

Cool, now `N=C(N)NCCC[C@H](NC(=O)c1ccsc1)C(=O)N[C@@H](CCCCN)C(=O)N[C@@H](C(N)=O)c1ccc(OCc2ccccc2)cc1`
490

Cool, now `N=C(N)NCCC[C@H](NC(=O)c1cc(-c2ccccc2)cs1)C(=O)N[C@@H](CCCCN)C(=O)N[C@@H](C(N)=O)c1ccc(OCc2c(Cl)cccc2Cl)cc1`
221

Cool, now `N=C(N)NCCC[C@H](NC(=O)c1ccccc1F)C(=O)N[C@@H](CCCCN)C(=O)N[C@@H](C(N)=O)c1ccc(OCc2ccccc2)cc1`
1290

Cool, now `N=C(N)NCCC[C@H](NC(=O)c1ccccc1)C(=O)N[C@@H](CCCCN)C(=O)N[C@@H](C(N)=O)c1ccc(OCc2ccc(Cl)c(Cl)c2)cc1`
615

Cool, now `N=C(N)NCCC[C@H](NC(=O)c1cccs1)C(=O)N[C@@H](CCCCN)C(=O)N[C@@H](C(N)=O)c1ccc(OCc2ccc(Cl)c(Cl)c2)cc1`
79

Cool, now `N=C(N)NCCC[C@H](NC(=O)c1ccc(Cl)s1)C(=O)N[C@@H](CCCCN)C(=O)N[C@@H](C(N)=O)c1ccc(OCc2ccc(Cl)cc2)cc1`
371

Cool, now `N=C(N)NCCC[C@H](NC(=O)c1cccs1)C(=O)N[C@@H](CCCCN)C(=O)N[C@@H](C(N)=O)c1ccc(OCc2ccc(C(F)(F)F)cc2)cc1`
117

Cool, now `N#Cc1ccc(COc2ccc([C@@H](NC(=O)[C@H](CCCCN)NC(=O)[C@H](CCCNC(=N)N)NC(=O)c3ccccc3)C(N)=O)cc2)cc1`
213

Cool, now `N=C(N)NCCC[C@H](NC(=O)/C=C/c1ccc(Cl)cc1)C(=O)N[C@@H](CCCCN)C(=O)N[C@@H](C(N)=O)c1ccc(OCc2ccccc2)cc1`
368

Cool, now `CC(C)(C)c1ccc(COc2ccc([C@@H](NC(=O)[C@H](CCCCN)NC(=O)[C@H](CCCNC(=N)N)NC(=O)c3cc4sccc4s3)C(N)=O)cc2)cc1`
15900

###

# Assay: Inhibition of Dengue virus serotype-2 NS2B-NS3 protease using 2-Abz-Nle-Lys-Arg-Arg-Ser-(3-NO2)-Tyr-NH2 as substrate preincubated with protein for 15 mins followed by substrate addition measured for 15 mins by FRET assay
# Set-up: species or system dengue virus type 2
Square brackets hold non-standard residues; d marks the D form. Peptide text beside a SMILES is read from it. * marks the point of attachment. dPhg = N[C@@H](C(=O)O)c1ccccc1; Bz = O=C(c1ccccc1)*
Property name: pIC50
// returns pIC50 (minus log10 of molar concentration), number only

The examples below pair each entry with its known result.
>  <Molecule>
N=C(N)NCCC[C@H](NC(=O)/C=C/c1ccc(Cl)cc1)C(=O)N[C@@H](CCCCN)C(=O)N[C@@H](C(N)=O)c1ccc(OCc2ccccc2)cc1

>  <pIC50>
6.14

$$$$
>  <Molecule>
N=C(N)NCCC[C@H](NC(=O)c1cc2sccc2s1)C(=O)N[C@@H](CCCCN)C(=O)N[C@@H](C(N)=O)c1ccc(OCc2ccccc2C(F)(F)F)cc1

>  <pIC50>
6.71

$$$$
>  <Molecule>
N=C(N)NCCC[C@H](NC(=O)c1nccs1)C(=O)N[C@@H](CCCCN)C(=O)N[C@@H](C(N)=O)c1ccc(OCc2c(Cl)cccc2Cl)cc1

>  <pIC50>
7.30

$$$$
>  <Molecule>
N=C(N)NCCC[C@H](NC(=O)c1ccccc1)C(=O)N[C@@H](CCCCN)C(=O)N[C@@H](C(N)=O)c1ccccc1 (Bz-Arg-Lys-[dPhg]-NH2)

>  <pIC50>
5.42

$$$$
>  <Molecule>
N=C(N)NCCC[C@H](NC(=O)c1ccccc1)C(=O)N[C@@H](CCCCN)C(=O)N[C@@H](C(N)=O)c1ccc(OCc2ccc(N)cc2)cc1

>  <pIC50>
5.70

$$$$

Next molecule, pIC50 to be filled in.
For `N=C(N)NCCC[C@H](NC(=O)c1ccccc1)C(=O)N[C@@H](CCCCN)C(=O)N[C@@H](C(N)=O)c1ccc(OCc2c(Cl)cccc2Cl)cc1` , what is its reported pIC50?
6.82

###

# Assay: Retention time of compound by RP-HPLC analysis
# Type: physicochemical
Property name: Retention_time (min)
Your answer is read as min, so omit the unit and give the number.

For `N=C(N)NCCC[C@H](NC(=O)c1ccc(-c2cccs2)s1)C(=O)N[C@@H](CCCCN)C(=O)N[C@@H](C(N)=O)c1ccc(OCc2ccc(Cl)c(Cl)c2)cc1` , what is its reported Retention_time?
3.6

Cool, now `N=C(N)NCCC[C@H](NC(=O)c1nccs1)C(=O)N[C@@H](CCCCN)C(=O)N[C@@H](C(N)=O)c1ccc(OCc2ccc(C(F)(F)F)cc2)cc1`
3.11

Cool, now `N=C(N)NCCC[C@H](NC(=O)c1cccs1)C(=O)N[C@@H](CCCCN)C(=O)N[C@@H](C(N)=O)c1ccc(OCc2ccc(C(F)(F)F)cc2)cc1`
3.15
